These entries and their values trace back to patent US20240309087A1.

- STUDY TARGET: T1, hCD112R mFC recombinant protein (human; murine, UniProt Q6DKI7 41-160)
- T1 construct: range 41-160; expressed in 293E cells; also called hCD112R ECD mFC; hCD112R-ECD-mFC; not shown: murine IgG2a Fc domain (MX2-mFc vector)
- T1 sequence (looked up): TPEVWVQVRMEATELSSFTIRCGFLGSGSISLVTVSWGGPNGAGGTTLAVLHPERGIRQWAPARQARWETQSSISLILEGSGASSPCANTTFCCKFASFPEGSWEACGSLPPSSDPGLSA
- ASSAY NAME: FACS competition, hCD112R mFc on CHO CD112 cells; IC50 COM701/IC50 antibody
Reported Relative activity (%) by item:
MEASURED PROPERTY: Relative activity (%)

BINDER	REPORTED RESULT
Hu55 (antibody, IgG4, V domains shown, humanized IgG4) VH: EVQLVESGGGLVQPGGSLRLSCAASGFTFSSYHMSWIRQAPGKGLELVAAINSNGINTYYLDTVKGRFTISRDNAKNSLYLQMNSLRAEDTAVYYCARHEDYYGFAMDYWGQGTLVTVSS VL: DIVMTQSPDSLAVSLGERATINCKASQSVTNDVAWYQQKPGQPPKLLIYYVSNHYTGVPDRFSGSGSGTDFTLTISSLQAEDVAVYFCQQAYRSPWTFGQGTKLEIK	85.7
Hu14 (antibody, IgG4, V domains shown, humanized IgG4) VH: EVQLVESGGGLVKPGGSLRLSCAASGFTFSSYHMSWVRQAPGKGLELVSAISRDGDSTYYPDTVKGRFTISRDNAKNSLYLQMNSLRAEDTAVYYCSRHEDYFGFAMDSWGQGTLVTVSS VL: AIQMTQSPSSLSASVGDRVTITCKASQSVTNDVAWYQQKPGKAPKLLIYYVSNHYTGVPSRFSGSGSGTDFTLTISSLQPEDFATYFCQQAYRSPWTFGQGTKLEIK	162
Hu33 (antibody, IgG4, V domains shown, humanized IgG4) VH: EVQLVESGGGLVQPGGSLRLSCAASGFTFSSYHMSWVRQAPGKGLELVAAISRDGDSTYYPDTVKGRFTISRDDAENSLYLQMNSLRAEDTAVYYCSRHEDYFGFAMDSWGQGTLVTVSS VL: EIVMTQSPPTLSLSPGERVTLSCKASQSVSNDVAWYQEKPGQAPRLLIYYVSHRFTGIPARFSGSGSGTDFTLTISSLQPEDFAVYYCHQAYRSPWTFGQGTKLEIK	144
